- methodDescription: Example 1 single-dose plasma pharmacokinetics after intranasal administration
- Format: in vivo, human
- runParameters: female, human, plasma, inhaled or intranasal, 160 mg, Female healthy subjects; single intranasal 160 mg cocaine HCl; plasma; read-out: AUCinf (Mean)
readout: AUC(0-inf)

Looking up COC(=O)[C@H]1[C@@H](OC(=O)c2ccccc2)C[C@@H]2CC[C@H]1N2C [Cocaine, cocaine, reference compound] , I found its AUC(0-inf) recorded as 60.6 ng·h/mL

* * *

- methodDescription: Example 2 plasma pharmacokinetics, normal renal function vs severe renal impairment
- runParameters: both, human, plasma, inhaled or intranasal, 160 mg, t1/2 (Geometric mean), normal renal function; single intranasal 160 mg cocaine HCl
readout: half-life (h)
State the answer as a number, implicitly in h.

Looking up COC(=O)[C@H]1[C@@H](OC(=O)c2ccccc2)C[C@@H]2CC[C@H]1N2C [Cocaine, cocaine, reference compound] , I found its half-life recorded as 4.12
